Test system: HCV replicon
assay method text: microbe, parasite or virus in culture
Assay type: cell-based
setup conditions: Replicon IC50 values are determined by firefly luciferase signal; bicistronic replicon, 2 days; read-out: Replicon IC5Os
pIC50: −log10 of the molar value.
property label: pIC50

Known pIC50 results, listed for orientation:
• N#Cc1c(-c2ccc(NS(=O)(=O)CCCCl)cc2)n(CC2CC2)c2cc(OC(F)F)ccc12 [Compound 683] = 5.70 to 6.30
• CCn1c(-c2cccc(NC(=O)C3CC3)c2)c(C#N)c2ccc(C(F)(F)F)cc21 [Compound 561] = < 5.70
• CCn1c(-c2cccc(S(N)(=O)=O)c2)c(C#N)c2ccc(OC)cc21 [Compound 373] = < 5.70

Which measured pIC50 value corresponds to CCn1cc(C#N)c2ccc(-n3cccc3)cc21 [Compound 27] ?
5.70 to 6.30

Recorded pIC50 for CCOc1ccc(C#Cc2c(C#N)c3ccc(OC)cc3n2CC)cc1 [Compound 149] , please?
5.70 to 6.30

Could you tell me which pIC50 is on file for CC(C)n1cc(C#N)c2cc3c(cc21)OCCO3 [Compound 52] ?
< 5.70

Please give the measured pIC50 for this compound: CCn1c(-c2ccc(C(=O)Nc3ccc(C)cc3)cc2)c(C#N)c2ccc(OC)cc21 [Compound 381]
< 5.70

Entry CCn1c(C#Cc2ccccc2Br)c(C#N)c2ccc(OC)cc21 [Compound 136] has what pIC50?
5.70 to 6.30

====

Entries and their IC50 values follow.
System: HCV replicon
assay method text: microbe, parasite or virus in culture
Type: cell-based
setup conditions: Replicon IC50 values are determined by firefly luciferase signal; bicistronic replicon, 2 days; read-out: Replicon IC5Os

Requested field: IC50. Item: CCNC(=O)Nc1ccc(-c2c(C#N)c3ccc(OC(F)F)cc3n2CC2CC2)cc1 [Compound 740]
500 to 2000 nM

Look up IC50: CCCn1c(-c2ccc(NC(=O)OCC)cc2)c(C#N)c2ccc(OC)cc21 [Compound 624]
500 to 2000 nM

Quick one: IC50 for CCn1c(-c2ccc(C(N)=O)cc2)c(C#N)c2cc(OC)ccc21 [Compound 568] ?
> 2000 nM

What value of IC50 has been reported for the following compound? CCn1c(-c2cccc(NC(=O)OCCl)c2)c(C#N)c2ccc(OC)cc21 [Compound 355]
> 2000 nM

// lookup IC50 for CCn1c(-c2ccc(S(N)(=O)=O)cc2)c(C#N)c2cc(F)ccc21 [Compound 437]
> 2000 nM

====

Tested on: HCV replicon
assay method text: microbe, parasite or virus in culture
Format: cell-based
setup conditions: Replicon IC50 values are determined by firefly luciferase signal; bicistronic replicon, 2 days; read-out: Replicon IC5Os
property label: IC50

// known answers, use as guide
* CCn1c(-c2ccc(S(=O)(=O)NC)cc2)c(C#N)c2ccc(OC)cc21 | > 2000 nM
* CCCCn1c(-c2ccc(NS(=O)(=O)CCC)cc2)c(C#N)c2ccc(OC)cc21 | 500 to 2000 nM
* CCCOC(=O)Nc1ccc(-c2c(C#N)c3ccc(OC)cc3n2CC)cc1 | > 2000 nM
* CCS(=O)(=O)Nc1ccc(-c2c(C#N)c3ccc(OC)cc3n2C(C)C)cc1 | < 500 nM
* CCn1c(NC(C)=O)c(C#N)c2ccc(OC)cc21 | 500 to 2000 nM

Recorded IC50 of CCn1c(-c2ccc(NS(=O)(=O)c3ccc(N4CCOCC4)nc3)cc2)c(C#N)c2ccc(OC)cc21 , please.
> 2000 nM

What IC50 value was documented for this compound, CCOC(=O)c1c(C)n(-c2ccc(OC)cc2)c2cc(OC(F)F)ccc12 ?
> 2000 nM

Suppose we examine the compound CCn1c(-c2cccc(NC(=O)OCC3CCCC3)c2)c(C#N)c2ccc(OC)cc21 ; what IC50 value has been reported?
500 to 2000 nM
